Origin of measurements: patent US9073974B2

System: U-87 MG xenograft
Test: In vivo and ex vivo near infra red fluorescent imaging, U-87 MG xenograft
Design: species or system nude mice
Conditions: complex of Streptavidin-Cy5.5 with biotinylated peptide, 6 hrs after tail vein injection
Bridge positions count the residues as written; N and C are the ends. Square brackets hold non-standard residues; d marks the D form. Peptide text beside a SMILES is read from it.
Reported Metric: tumor uptake, ex vivo imaging

N=C(N)NCCC[C@@H]1NC(=O)[C@H](CCCCN)NC(=O)[C@@H](Cc2ccc(O)cc2)NC(=O)[C@H](CC(=O)O)NC(=O)CNC1=O [cyclo (RGDyK), cyclo(RGDyK)]
reverse
CC(C)[C@H]1NC(=O)[C@@H](CC(=O)O)NC(=O)[C@H](CC(=O)O)NC(=O)CNC(=O)[C@H](CCCNC(=N)N)NC(=O)CNC(=O)[C@H](N)CSSC[C@H](C(N)=O)NC1=O [LXW7, cGRGDdvc] (H-[dC]GRGD[dD][dV][dC]-NH2; disulfide 1-8)
high
N=C(N)NCCC[C@@H]1NC(=O)[C@H](CCCCN)NC(=O)[C@@H](Cc2ccccc2)NC(=O)[C@H](CC(=O)O)NC(=O)CNC1=O [cyclo (RGDfK), cyclo(RGDfK)]
reverse
N=C(N)NCCC[C@@H]1NC(=O)[C@H](CCC(=O)O)NC(=O)[C@@H](Cc2ccccc2)NC(=O)[C@H](CC(=O)O)NC(=O)CNC1=O [cyclo(RGDfE)]
reverse
